molecular target: panel of more than 300 wild-type and mutant kinases (313 kinase panel) (Homo sapiens, UniProt P53779); assay: Kinase profiling in a biochemical assay panel (mobility shift assays and ELISA), %-inhibition at 1 μM; selectivity entropy; settings: kinase JNK3; compound at 1 μM
Sequence (P53779 whole entry, change not shown): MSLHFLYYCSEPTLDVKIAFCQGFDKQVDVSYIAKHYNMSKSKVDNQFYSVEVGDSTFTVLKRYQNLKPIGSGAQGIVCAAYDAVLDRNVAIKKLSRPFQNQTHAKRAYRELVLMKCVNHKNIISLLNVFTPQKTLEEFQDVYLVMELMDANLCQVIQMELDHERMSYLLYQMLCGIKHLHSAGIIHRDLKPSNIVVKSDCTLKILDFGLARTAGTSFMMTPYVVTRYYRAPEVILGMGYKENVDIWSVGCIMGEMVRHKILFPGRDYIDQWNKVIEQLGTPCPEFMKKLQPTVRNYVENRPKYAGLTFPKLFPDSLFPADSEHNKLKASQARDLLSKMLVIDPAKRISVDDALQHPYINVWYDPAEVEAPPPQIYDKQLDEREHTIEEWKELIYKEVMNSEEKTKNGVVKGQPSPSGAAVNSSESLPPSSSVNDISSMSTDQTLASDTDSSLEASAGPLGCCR
Readout: %-inhibition of JNK3 (%)
The reply should be a number in %, with the unit left off.

A selection of reference data follows.
>>> val("CC(=O)Nc1cccc(-n2c(=O)n(C3CC3)c(=O)c3c(Nc4ccc(I)cc4F)n(C)c(=O)c(C)c32)c1")
-2.37
>>> val("CO[C@H]1C[C@@H]2CC[C@@H](C)[C@@](O)(O2)C(=O)C(=O)N2CCCC[C@H]2C(=O)O[C@H]([C@H](C)C[C@@H]2CC[C@@H](OCCO)[C@H](OC)C2)CC(=O)[C@H](C)/C=C(\\C)[C@@H](O)[C@@H](OC)C(=O)[C@H](C)C[C@H](C)/C=C/C=C/C=C/1C")
-4.31

Okay, now this molecule:
## Task Which %-inhibition of JNK3 value is on record for COc1cc2c(Nc3ccc(Br)cc3F)ncnc2cc1OCC1CCN(C)CC1 ?
## Result -0.407
